Target desc: AVPR1A (Homo sapiens, UniProt P37288)
Sequence (P37288 whole entry, species assumed): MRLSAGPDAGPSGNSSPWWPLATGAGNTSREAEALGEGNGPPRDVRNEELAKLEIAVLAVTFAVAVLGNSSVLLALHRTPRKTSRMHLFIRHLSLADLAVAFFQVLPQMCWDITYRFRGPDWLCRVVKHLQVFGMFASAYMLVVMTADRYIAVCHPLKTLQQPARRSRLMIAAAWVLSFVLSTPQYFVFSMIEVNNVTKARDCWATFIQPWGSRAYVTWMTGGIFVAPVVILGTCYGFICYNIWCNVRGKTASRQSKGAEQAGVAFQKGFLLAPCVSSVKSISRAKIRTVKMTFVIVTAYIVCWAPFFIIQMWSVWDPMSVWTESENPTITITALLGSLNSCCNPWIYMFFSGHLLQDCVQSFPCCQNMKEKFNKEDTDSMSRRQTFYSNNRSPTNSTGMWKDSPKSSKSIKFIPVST
Protocol notes: Mini-profiling panel, GPCR
Condition context: GPCR Targets; read-out: AVPR1A Antagonism IC50
pIC50: −log10 of the molar value.
Measure name: pIC50

Enquiry: Fill in: pIC50 of Cn1cnc2c(=O)n(-c3cccnc3C3CC3)c3cc(Cl)ccc3c21 is ___
Return: < 5.00

###

Target desc: SERT (Homo sapiens, UniProt P31645)
Sequence (P31645 whole entry, species assumed): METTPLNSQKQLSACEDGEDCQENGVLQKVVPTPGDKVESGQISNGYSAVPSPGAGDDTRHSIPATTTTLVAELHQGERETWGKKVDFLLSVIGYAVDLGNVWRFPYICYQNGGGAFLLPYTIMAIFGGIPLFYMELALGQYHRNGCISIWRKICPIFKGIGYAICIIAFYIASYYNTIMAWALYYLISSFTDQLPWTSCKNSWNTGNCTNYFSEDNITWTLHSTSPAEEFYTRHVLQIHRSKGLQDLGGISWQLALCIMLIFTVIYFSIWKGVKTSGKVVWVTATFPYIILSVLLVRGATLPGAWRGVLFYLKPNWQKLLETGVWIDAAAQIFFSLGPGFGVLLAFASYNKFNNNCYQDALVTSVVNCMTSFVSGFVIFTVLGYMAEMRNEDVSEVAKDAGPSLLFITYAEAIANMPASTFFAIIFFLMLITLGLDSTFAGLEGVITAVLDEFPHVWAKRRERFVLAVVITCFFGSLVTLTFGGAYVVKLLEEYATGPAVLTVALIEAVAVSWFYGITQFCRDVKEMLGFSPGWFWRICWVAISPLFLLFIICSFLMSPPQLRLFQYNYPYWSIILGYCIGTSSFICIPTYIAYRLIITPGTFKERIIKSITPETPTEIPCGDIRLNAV
Protocol notes: Mini-profiling panel, transporter
Measure name: IC50

Enquiry: Need IC50 of Cn1cnc2c(=O)n(-c3cccnc3C3CC3)c3cc(Cl)ccc3c21 [SCR‐7952] , thanks.
Return: > 10 µM
